Entry source: patent US6509356B1

- Test system: MCF-7 breast adenocarcinoma cells
- ASSAY_NOTES: MCF-7 Proliferation Assay (tritiated thymidine incorporation)
- Type: cell-based
- CONDITION_PARAMETERS: Homo sapiens, MCF7; MCF-7 cells (ATCC HTB 22) in DCC-FBS assay medium, 48 hours with drug, then tritiated thymidine pulse for 4 hours; read-out: Inhibition of MCF7 cell proliferation: ED50
pEC50: −log10 of the molar value. Structures can show the parent of a compound that is named as a salt.
ATTRIBUTE_MEASURED: pEC50

[[record]]
compound = "CC(=O)c1ccc(N2CCN(CCOc3ccc(Cc4c(-c5ccc(O)cc5)ccc5cc(O)ccc45)cc3)CC2)cc1 [Example 8, dihydrochloride]"
recorded_measurement = 8.40


A. Oc1ccc(-c2ccc3cc(O)ccc3c2Cc2ccc(OCCCNc3cccc4ccccc34)cc2)cc1 [Example 9, hydrochloride]
B. CCCCN(CCCC)CCCOc1ccc(Cc2c(-c3ccc(O)cc3)ccc3cc(O)ccc23)cc1 [Example 7, hydrochloride]
C. CC(C)N(CCOc1ccc(Cc2c(-c3ccc(O)cc3)ccc3cc(O)ccc23)cc1)C(C)C [Example 3, hydrochloride]
Ascending by pEC50, please: list the compounds accordingly. Please write the labels in the order that was asked for. A, B, C
(A: 8.05, B: 8.40, C: 8.70)
